experimentalTarget: human HAQ isoform of STING (THP-1 STING Lucia ISG cells) (Homo sapiens (Human), UniProt Q86WV6, G230A/H232R/R293Q/R71H)
Sequence (Q86WV6 whole entry R71H/G230A/H232R/R293Q, canonical isoform): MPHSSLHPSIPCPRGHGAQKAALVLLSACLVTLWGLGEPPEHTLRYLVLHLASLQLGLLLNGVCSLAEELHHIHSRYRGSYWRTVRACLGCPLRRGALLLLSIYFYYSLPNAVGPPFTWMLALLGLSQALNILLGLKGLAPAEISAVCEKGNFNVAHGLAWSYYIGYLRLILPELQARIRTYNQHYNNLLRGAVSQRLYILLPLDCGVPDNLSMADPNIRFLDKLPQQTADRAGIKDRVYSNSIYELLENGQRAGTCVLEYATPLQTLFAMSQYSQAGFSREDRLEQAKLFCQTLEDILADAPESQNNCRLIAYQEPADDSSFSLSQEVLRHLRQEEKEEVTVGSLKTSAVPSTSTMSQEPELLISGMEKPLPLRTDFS
testSummary: THP-1 STING Lucia ISG reporter cell line assay
testContext: 24 h incubation, QUANTI-Luc luminescence
Consider the following compounds; for each one, report its pEC50.
// pEC50 here means minus log10 of the molar concentration (mol/L)

Incoming: Read off the recorded pEC50 for COc1c(C(N)=O)ccc2c1nc(-c1c(F)cc(Cl)cc1C(=O)O)n2CCn1c(-c2c(F)cc(Cl)cc2C(=O)O)nc2c(OC)c(C(N)=O)ccc21
Outgoing: 6.08

Incoming: Read off the recorded pEC50 for COc1c(C(N)=O)ccc2c1nc(-c1ccc(C)cc1C(=O)O)n2CCn1c(-c2ccc(C)cc2C(=O)O)nc2c(OC)c(C(N)=O)ccc21
Outgoing: 5.53
